Source listed as PubChem BioAssay AID2124.

# PROTOCOL NOTES: cell-permeable autofluorescent compounds in GFP channel, dose response, artefact control, imaging, high-content imaging (AID 2124);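 also: cells exposed to compound for 48 hours before fixing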
# SETUP CONDITIONS: cells, GFP-channel autofluorescence, high-content imaging; cell count; at 10 µM
Records with an inconclusive call do not appear.
MEASURED PARAMETER: cell count

Request: Provide cell count value for the following compound: COc1cccc2sc(NNC(=O)C3=COCCO3)nc12
Response: 3320 cells

Request: Provide cell count value for the following compound: Cc1c(N=C2N=C(NC(=O)c3cccs3)c3ccccc32)c(=O)n(-c2ccccc2)n1C
Response: 2570 cells

Request: Provide cell count value for the following compound: Cc1cc(/C=N/n2cnnc2)c(C)n1-c1cccc(C(=O)O)c1
Response: 2960 cells

Request: Provide cell count value for the following compound: CCC(=O)Nc1ccc(C(=O)OCC(=O)c2ccc(C)c([N+](=O)[O-])c2)cc1
Response: 2960 cells

Request: Provide cell count value for the following compound: COc1cc(Cl)c(C)cc1NC(=O)CN(C)Cc1cccc(OC)c1OC
Response: 2910 cells

Request: Provide cell count value for the following compound: CCOC(=O)Cc1csc(NC(=O)c2sc3nc4c(C)cc(C)cc4cc3c2N)n1
Response: 2560 cells

Request: Provide cell count value for the following compound: COC(=O)c1ccc(COc2ccc3c(C)c(C)c(=O)oc3c2)o1
Response: 3400 cells

Request: Provide cell count value for the following compound: CCCCC(=O)Nc1ccc2c(c1)nc1n2CCSC1
Response: 2870 cells

Request: Provide cell count value for the following compound: CCc1ccc(NC(=O)c2cc(C(C)C)on2)cc1
Response: 3050 cells

Request: Provide cell count value for the following compound: CCCOc1cc(N(CC)CC)ccc1/C=C(/C#N)c1nc2ccc(C)cc2[nH]1
Response: 1370 cells

Request: Provide cell count value for the following compound: CC(=O)C(=Cc1cn(-c2ccccc2)nc1-c1ccccc1)C(C)=O
Response: 3020 cells

Request: Provide cell count value for the following compound: CCCCN1C(=O)/C(=C/C=C2/CC(C)(C)CN2C)SC1=S
Response: 2800 cells

Request: Provide cell count value for the following compound: Cc1nn(C)cc1N1C(=O)c2cccc3c(N)ccc(c23)C1=O
Response: 2940 cells

Request: Provide cell count value for the following compound: CCOC(=O)CC1C(=O)NCCN1c1nc2ccc(C)cn2c(=O)c1/C=C1\SC(=S)N(C(C)CC)C1=O (configuration not stated)
Response: 2960 cells

Request: Provide cell count value for the following compound: CNC(=O)C1CC(=O)N/C(=N/N=C(\C)c2cccs2)S1 (configuration not stated)
Response: 3440 cells

Request: Provide cell count value for the following compound: O=[N+]([O-])c1ccc(N/N=C/c2c[nH]c3ccccc23)cc1
Response: 1200 cells

Request: Provide cell count value for the following compound: COc1ccccc1NC(=O)/C=C1\SCC(=O)N1C
Response: 3000 cells

Request: Provide cell count value for the following compound: CCN(CC)c1ccc(C(=O)N/N=C/c2ccc(N3CCOCC3)cc2)cc1
Response: 3040 cells

Request: Provide cell count value for the following compound: Cc1noc(C)c1S(=O)(=O)N1CCC(C(=O)N2CCN(C3CCCC3)CC2)CC1
Response: 2760 cells

Request: Provide cell count value for the following compound: CC(NC(=O)/C(C#N)=C1\N=C(NC(=O)c2cccs2)c2ccccc21)c1ccccc1 (configuration not stated)
Response: 2810 cells

Request: Provide cell count value for the following compound: COc1cc([C@@H]2[C@H]3CNCC=C3C(C#N)=C(N)C2(C#N)C#N)ccc1OC(C)C
Response: 3160 cells

Request: Provide cell count value for the following compound: CCCCN1C(=O)/C(=C/C=C2\Oc3ccccc3N2CC)SC1=S
Response: 3450 cells
